experiment: Bioaccumulation (Log Pow), OECD Method 117; type: physicochemical; conditions: octanol/water, component in aqueous composition of Table 2
attribute measured: chromatographic logP

Quick check: chromatographic logP of CCC(C)=NO ?
1.38

* * *

assay: OSPAR/HOCNF aquatic toxicity test, Acartia tonsa; format: in vivo; settings: Acartia tonsa, in vivo; 48 hr; read-out: Acartia tonsa LC 50 48 hr
attribute measured: LC50 at 48 h (µg/mL)
Numbers only, in µg/mL.

Please give the measured LC50 at 48 h for this molecule: CCC(C)=NO
6930

Hello, the source for this data is patent US20050065041A1, in case you need it.
